Data provenance: the kinase profiling compilation of Christmann-Franck et al. (2016)

- Target under test: RPS6KA2 KD2 (human)
- Protocol description: KINOMEscan competition binding
- Applied conditions: compound 1.0 µM
Listed compounds paired with reported kinase still bound, per cent of control
Value kind: kinase still bound, per cent of control

> print(dat)
                                 cpd.smiles  observed.measurement
1  CN(C)C/C=C/C(=O)Nc1cccc(C(=O)Nc2ccc(Nc3nccc(-c4cccnc4)n3)cc2)c1                   92%
2  CN(C)C/C=C/C(=O)Nc1cccc(C(=O)Nc2ccc(Nc3nccc(/C(C#N)=C4\Nc5ccccc5S4)n3)cc2)c1                  100%
3  CN(C)C/C=C/C(=O)Nc1cccc(C(=O)Nc2ccc(Nc3nccc(-c4c(-c5ccccc5)nn5ccccc45)n3)cc2)c1                   82%
4  Cc1cc(NC(=O)c2cccc(NC(=O)/C=C/CN(C)C)c2)ccc1Nc1nccc(-c2cccnc2)n1                  100%

---

- Target under test: TBK1 (human) (UniProt Q9UHD2)
- Sequence (Q9UHD2 whole entry, looked up): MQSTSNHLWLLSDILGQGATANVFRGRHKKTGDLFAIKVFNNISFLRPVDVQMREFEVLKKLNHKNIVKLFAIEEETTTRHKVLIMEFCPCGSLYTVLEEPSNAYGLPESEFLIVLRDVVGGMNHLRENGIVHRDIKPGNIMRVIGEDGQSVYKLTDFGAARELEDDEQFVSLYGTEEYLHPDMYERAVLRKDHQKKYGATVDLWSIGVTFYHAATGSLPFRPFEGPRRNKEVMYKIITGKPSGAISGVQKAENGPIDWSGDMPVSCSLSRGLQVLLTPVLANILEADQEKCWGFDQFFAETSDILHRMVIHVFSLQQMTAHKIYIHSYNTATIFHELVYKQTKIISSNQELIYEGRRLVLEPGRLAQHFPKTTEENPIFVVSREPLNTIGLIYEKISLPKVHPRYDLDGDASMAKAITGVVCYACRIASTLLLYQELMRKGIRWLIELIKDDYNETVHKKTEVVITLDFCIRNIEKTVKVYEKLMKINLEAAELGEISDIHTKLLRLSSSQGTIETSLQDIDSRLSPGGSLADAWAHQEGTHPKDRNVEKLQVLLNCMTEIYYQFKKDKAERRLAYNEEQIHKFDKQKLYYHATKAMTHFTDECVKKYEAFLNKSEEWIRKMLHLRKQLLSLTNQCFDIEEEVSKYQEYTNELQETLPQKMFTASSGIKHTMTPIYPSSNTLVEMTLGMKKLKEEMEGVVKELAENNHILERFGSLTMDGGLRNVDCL
- Protocol description: KINOMEscan competition binding
- Applied conditions: compound 1.0 µM
Quick list: kinase still bound, per cent of control per entry.
Value kind: kinase still bound, per cent of control

> print(dat)
                                 cpd.smiles  observed.measurement
1  CN(C)C/C=C/C(=O)Nc1cccc(C(=O)Nc2ccc(Nc3nccc(/C(C#N)=C4\Nc5ccccc5S4)n3)cc2)c1                  100%
2  Cc1cc(NC(=O)c2cccc(NC(=O)/C=C/CN(C)C)c2)ccc1Nc1nccc(-c2cccnc2)n1                  100%
3  CN(C)C/C=C/C(=O)Nc1cccc(C(=O)Nc2ccc(Nc3nccc(-c4cccnc4)n3)cc2)c1                   61%
4  CN(C)C/C=C/C(=O)Nc1cccc(C(=O)Nc2ccc(Nc3nccc(-c4c(-c5ccccc5)nn5ccccc45)n3)cc2)c1                  100%

---

- Target under test: CDK14 (human)
- Protocol description: KINOMEscan competition binding
- Applied conditions: compound 1.0 µM
Value kind: kinase still bound, per cent of control (%)

> print(dat)
                                 cpd.smiles  target.under.test  units.of.measure  observed.measurement
1  CN(C)C/C=C/C(=O)Nc1cccc(C(=O)Nc2ccc(Nc3nccc(/C(C#N)=C4\Nc5ccccc5S4)n3)cc2)c1      CDK14 (human)                 %                   100
2  CN(C)C/C=C/C(=O)Nc1cccc(C(=O)Nc2ccc(Nc3nccc(-c4c(-c5ccccc5)nn5ccccc45)n3)cc2)c1      CDK14 (human)                 %                   100
3  Cc1cc(NC(=O)c2cccc(NC(=O)/C=C/CN(C)C)c2)ccc1Nc1nccc(-c2cccnc2)n1      CDK14 (human)                 %                    88
4  CN(C)C/C=C/C(=O)Nc1cccc(C(=O)Nc2ccc(Nc3nccc(-c4cccnc4)n3)cc2)c1      CDK14 (human)                 %                    53

---

- Target under test: UniProt:P07333
- Sequence (P07333 whole entry, looked up): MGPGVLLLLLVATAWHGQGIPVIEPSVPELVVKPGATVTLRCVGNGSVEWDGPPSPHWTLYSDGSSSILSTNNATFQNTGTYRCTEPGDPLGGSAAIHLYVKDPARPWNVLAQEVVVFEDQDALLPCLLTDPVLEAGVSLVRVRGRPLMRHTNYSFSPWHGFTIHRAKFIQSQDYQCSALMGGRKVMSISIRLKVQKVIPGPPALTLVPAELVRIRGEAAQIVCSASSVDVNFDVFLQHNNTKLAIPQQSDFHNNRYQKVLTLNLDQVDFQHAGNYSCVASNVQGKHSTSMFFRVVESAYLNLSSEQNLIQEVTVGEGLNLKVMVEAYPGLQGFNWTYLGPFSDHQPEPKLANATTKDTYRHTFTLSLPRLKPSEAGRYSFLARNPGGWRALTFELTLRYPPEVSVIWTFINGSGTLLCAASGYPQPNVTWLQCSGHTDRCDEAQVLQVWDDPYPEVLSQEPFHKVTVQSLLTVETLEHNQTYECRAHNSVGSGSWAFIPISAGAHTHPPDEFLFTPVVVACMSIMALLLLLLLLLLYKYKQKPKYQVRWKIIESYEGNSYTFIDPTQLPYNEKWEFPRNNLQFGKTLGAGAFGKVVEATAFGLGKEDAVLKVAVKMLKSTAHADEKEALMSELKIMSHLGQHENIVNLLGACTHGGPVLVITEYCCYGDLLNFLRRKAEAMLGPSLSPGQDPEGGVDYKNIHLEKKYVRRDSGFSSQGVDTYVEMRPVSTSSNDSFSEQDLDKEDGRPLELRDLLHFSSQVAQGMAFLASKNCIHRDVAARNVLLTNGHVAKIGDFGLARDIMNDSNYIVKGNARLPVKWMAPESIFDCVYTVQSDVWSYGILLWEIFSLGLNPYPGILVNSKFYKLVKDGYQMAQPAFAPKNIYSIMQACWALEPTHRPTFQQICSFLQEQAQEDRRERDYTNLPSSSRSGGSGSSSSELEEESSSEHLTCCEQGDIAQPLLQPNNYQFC
- Protocol description: KINOMEscan competition binding
- Applied conditions: compound 1.0 µM
Listed below: kinase still bound, per cent of control values for each entry.
Value kind: kinase still bound, per cent of control (%)

> print(dat)
                                 cpd.smiles                               value.kind  observed.measurement
1  CN(C)C/C=C/C(=O)Nc1cccc(C(=O)Nc2ccc(Nc3nccc(-c4c(-c5ccccc5)nn5ccccc45)n3)cc2)c1  kinase still bound, per cent of control                     6
2  CN(C)C/C=C/C(=O)Nc1cccc(C(=O)Nc2ccc(Nc3nccc(/C(C#N)=C4\Nc5ccccc5S4)n3)cc2)c1  kinase still bound, per cent of control                    82
3  CN(C)C/C=C/C(=O)Nc1cccc(C(=O)Nc2ccc(Nc3nccc(-c4cccnc4)n3)cc2)c1  kinase still bound, per cent of control                    52
4  Cc1cc(NC(=O)c2cccc(NC(=O)/C=C/CN(C)C)c2)ccc1Nc1nccc(-c2cccnc2)n1  kinase still bound, per cent of control                   8.6

---

- Target under test: ERBB2 (human)
- Protocol description: KINOMEscan competition binding
- Applied conditions: compound 1.0 µM
Value kind: kinase still bound, per cent of control (%)

> print(dat)
                                 cpd.smiles  observed.measurement
1  Cc1cc(NC(=O)c2cccc(NC(=O)/C=C/CN(C)C)c2)ccc1Nc1nccc(-c2cccnc2)n1                    82
2  CN(C)C/C=C/C(=O)Nc1cccc(C(=O)Nc2ccc(Nc3nccc(/C(C#N)=C4\Nc5ccccc5S4)n3)cc2)c1                   100
3  CN(C)C/C=C/C(=O)Nc1cccc(C(=O)Nc2ccc(Nc3nccc(-c4cccnc4)n3)cc2)c1                    92
4  CN(C)C/C=C/C(=O)Nc1cccc(C(=O)Nc2ccc(Nc3nccc(-c4c(-c5ccccc5)nn5ccccc45)n3)cc2)c1                   0.4

---

- Target under test: TYRO3 (human) (UniProt Q06418)
- Sequence (Q06418 whole entry, looked up): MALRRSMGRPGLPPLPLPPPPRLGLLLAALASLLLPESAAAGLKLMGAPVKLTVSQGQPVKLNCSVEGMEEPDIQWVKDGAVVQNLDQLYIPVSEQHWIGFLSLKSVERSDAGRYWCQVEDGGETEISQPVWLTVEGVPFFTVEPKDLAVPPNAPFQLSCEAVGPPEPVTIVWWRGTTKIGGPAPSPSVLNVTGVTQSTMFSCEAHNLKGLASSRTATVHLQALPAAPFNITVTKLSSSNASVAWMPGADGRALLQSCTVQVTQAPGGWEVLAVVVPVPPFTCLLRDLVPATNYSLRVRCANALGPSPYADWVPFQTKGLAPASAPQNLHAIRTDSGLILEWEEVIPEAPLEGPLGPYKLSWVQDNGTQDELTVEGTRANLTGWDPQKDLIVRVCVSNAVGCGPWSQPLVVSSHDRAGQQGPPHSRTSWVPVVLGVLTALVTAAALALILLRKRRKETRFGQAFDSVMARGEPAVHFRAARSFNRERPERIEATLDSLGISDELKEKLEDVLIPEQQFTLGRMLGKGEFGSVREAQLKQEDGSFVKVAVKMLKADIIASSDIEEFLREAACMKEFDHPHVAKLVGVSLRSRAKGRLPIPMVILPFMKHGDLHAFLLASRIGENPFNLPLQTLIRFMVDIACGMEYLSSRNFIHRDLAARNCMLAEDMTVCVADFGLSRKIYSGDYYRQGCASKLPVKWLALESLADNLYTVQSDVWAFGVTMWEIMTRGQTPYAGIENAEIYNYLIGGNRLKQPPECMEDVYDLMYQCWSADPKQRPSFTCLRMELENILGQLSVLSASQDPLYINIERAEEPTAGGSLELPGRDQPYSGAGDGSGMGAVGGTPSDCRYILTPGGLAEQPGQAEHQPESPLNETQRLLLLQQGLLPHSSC
- Protocol description: KINOMEscan competition binding
- Applied conditions: compound 1.0 µM
Value kind: kinase still bound, per cent of control (%)

> print(dat)
                                 cpd.smiles               target.under.test                               value.kind  observed.measurement
1  CN(C)C/C=C/C(=O)Nc1cccc(C(=O)Nc2ccc(Nc3nccc(-c4cccnc4)n3)cc2)c1  TYRO3 (human) (UniProt Q06418)  kinase still bound, per cent of control                    87
2  CN(C)C/C=C/C(=O)Nc1cccc(C(=O)Nc2ccc(Nc3nccc(-c4c(-c5ccccc5)nn5ccccc45)n3)cc2)c1  TYRO3 (human) (UniProt Q06418)  kinase still bound, per cent of control                    81
3  CN(C)C/C=C/C(=O)Nc1cccc(C(=O)Nc2ccc(Nc3nccc(/C(C#N)=C4\Nc5ccccc5S4)n3)cc2)c1  TYRO3 (human) (UniProt Q06418)  kinase still bound, per cent of control                   100
4  Cc1cc(NC(=O)c2cccc(NC(=O)/C=C/CN(C)C)c2)ccc1Nc1nccc(-c2cccnc2)n1  TYRO3 (human) (UniProt Q06418)  kinase still bound, per cent of control                    85

---

- Target under test: UniProt:O60285
- Sequence (O60285 whole entry, looked up): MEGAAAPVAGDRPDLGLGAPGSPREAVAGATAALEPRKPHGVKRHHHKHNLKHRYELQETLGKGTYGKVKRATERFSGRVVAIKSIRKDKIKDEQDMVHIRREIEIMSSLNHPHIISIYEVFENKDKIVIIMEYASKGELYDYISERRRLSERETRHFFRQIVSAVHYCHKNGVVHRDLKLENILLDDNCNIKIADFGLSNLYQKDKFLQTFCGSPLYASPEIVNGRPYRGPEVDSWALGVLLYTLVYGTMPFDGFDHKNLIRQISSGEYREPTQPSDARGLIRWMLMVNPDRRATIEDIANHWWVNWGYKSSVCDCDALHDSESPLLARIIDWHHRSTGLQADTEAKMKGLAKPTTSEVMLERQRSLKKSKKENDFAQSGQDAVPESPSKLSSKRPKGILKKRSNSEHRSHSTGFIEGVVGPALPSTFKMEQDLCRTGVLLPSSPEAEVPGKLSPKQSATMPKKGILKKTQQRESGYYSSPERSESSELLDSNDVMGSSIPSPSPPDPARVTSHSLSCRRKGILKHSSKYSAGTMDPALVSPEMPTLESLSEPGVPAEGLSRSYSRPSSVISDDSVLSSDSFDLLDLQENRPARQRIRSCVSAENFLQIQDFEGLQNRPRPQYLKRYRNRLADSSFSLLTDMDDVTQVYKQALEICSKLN
Value kind: IC50

> print(dat)
                                 cpd.smiles  observed.measurement
1  CN(C)C/C=C/C(=O)Nc1cccc(C(=O)Nc2ccc(Nc3nccc(-c4cccnc4)n3)cc2)c1                144 nM

---

- Target under test: HUNK (human)
- Protocol description: KINOMEscan competition binding
- Applied conditions: compound 1.0 µM
Value kind: kinase still bound, per cent of control (%)

> print(dat)
                                 cpd.smiles  units.of.measure  observed.measurement
1  CN(C)C/C=C/C(=O)Nc1cccc(C(=O)Nc2ccc(Nc3nccc(/C(C#N)=C4\Nc5ccccc5S4)n3)cc2)c1                 %                    99
2  Cc1cc(NC(=O)c2cccc(NC(=O)/C=C/CN(C)C)c2)ccc1Nc1nccc(-c2cccnc2)n1                 %                    53
3  CN(C)C/C=C/C(=O)Nc1cccc(C(=O)Nc2ccc(Nc3nccc(-c4cccnc4)n3)cc2)c1                 %                    65
4  CN(C)C/C=C/C(=O)Nc1cccc(C(=O)Nc2ccc(Nc3nccc(-c4c(-c5ccccc5)nn5ccccc45)n3)cc2)c1                 %                    67

---

Measured kinase still bound, per cent of control of individual entries
- Target under test: UniProt Q9UQ88
- Sequence (Q9UQ88 whole entry, looked up): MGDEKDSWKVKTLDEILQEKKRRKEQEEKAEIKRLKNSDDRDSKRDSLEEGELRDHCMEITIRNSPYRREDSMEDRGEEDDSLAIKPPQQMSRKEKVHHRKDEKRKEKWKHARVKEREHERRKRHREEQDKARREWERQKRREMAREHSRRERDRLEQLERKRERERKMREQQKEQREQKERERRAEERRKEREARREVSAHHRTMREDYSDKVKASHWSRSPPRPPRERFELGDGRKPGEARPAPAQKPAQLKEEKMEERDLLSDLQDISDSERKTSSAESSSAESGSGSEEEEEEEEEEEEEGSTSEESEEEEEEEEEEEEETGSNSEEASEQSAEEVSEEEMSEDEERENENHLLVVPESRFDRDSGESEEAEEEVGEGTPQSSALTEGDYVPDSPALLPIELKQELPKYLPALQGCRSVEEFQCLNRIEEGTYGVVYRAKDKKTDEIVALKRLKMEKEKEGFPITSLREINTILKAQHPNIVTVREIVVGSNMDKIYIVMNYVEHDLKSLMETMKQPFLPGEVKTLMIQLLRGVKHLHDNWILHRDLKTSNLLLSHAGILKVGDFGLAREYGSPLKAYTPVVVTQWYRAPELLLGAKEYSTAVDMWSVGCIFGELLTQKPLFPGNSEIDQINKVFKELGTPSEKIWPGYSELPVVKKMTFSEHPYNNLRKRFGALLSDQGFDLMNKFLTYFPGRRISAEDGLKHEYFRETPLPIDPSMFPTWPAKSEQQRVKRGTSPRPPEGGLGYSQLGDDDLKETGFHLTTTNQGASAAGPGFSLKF
- Protocol description: KINOMEscan competition binding
- Applied conditions: compound 1.0 µM
Value kind: kinase still bound, per cent of control (%)

> print(dat)
                                 cpd.smiles  observed.measurement
1  CN(C)C/C=C/C(=O)Nc1cccc(C(=O)Nc2ccc(Nc3nccc(/C(C#N)=C4\Nc5ccccc5S4)n3)cc2)c1                    39
2  CN(C)C/C=C/C(=O)Nc1cccc(C(=O)Nc2ccc(Nc3nccc(-c4c(-c5ccccc5)nn5ccccc45)n3)cc2)c1                    32
3  Cc1cc(NC(=O)c2cccc(NC(=O)/C=C/CN(C)C)c2)ccc1Nc1nccc(-c2cccnc2)n1                    98
4  CN(C)C/C=C/C(=O)Nc1cccc(C(=O)Nc2ccc(Nc3nccc(-c4cccnc4)n3)cc2)c1                    74
